These measurements were taken from PubChem BioAssay (NCI).

Experiment: NCI Yeast Anticancer Drug Screen. Data for the mec2-1 strain (AID 157)
Settings: S. cerevisiae mec2-1 strain, at 50.0 µM, stronger effect = higher value
The panel holds about 79,000 compounds, 15% with a hit somewhere; the sample as a whole holds those more often. Activity calls are given as the source filed them. Rule as the data show it: active = growth inhibition above about 70%; inactive = the rest.
measured.parameter: growth inhibition

CCc1ccc2c(c1)N(CCCN(CCCl)CCCl)c1ccccc1S2: 99.2% (active)
CC(Cc1ccccc1)N(C)Cc1ccc(-c2ccc(Cl)cc2)o1 (centres undefined): 99.7% (active)
COc1cc2c(c(OC)c1OC)-c1ccc(O)c(=O)cc1C(NC(C)=O)CC2 (centres undefined): 17.3% (inactive)
CN(C)CC(Cl)CCl (centres undefined): 80.2% (active)
